tested on: M. mycetomatis strain mm55; details: primary screen, metabolic activity vs growth control; 96 h, 2 µM; inhibitor
About 130 (2.5%) of roughly 5,300 compounds showed an effect of 50% or more. What follows is part of a selection rich in strong results, with near analogues and random picks from the rest.
Decision: % viability beneath 90% gives true; % viability meeting or exceeding 90% gives false.

The examples below pair each entry with its known result.
{"molecule": "NC[C@@H]1O[C@H](O[C@H]2[C@@H](O)[C@H](O[C@@H]3[C@@H](O)[C@H](N)C[C@H](N)[C@H]3O[C@H]3O[C@H](CO)[C@@H](O)[C@H](O)[C@H]3N)O[C@@H]2CO)[C@H](N)[C@@H](O)[C@@H]1O", "cat": "false"}
{"molecule": "O=C(Nc1ccc([N+](=O)[O-])cc1Cl)c1cc(Cl)ccc1O [niclosamide]", "cat": "true"}
{"molecule": "CCn1c(-c2nonc2N)nc2cnc(Oc3cccc(NC(=O)c4ccc(OCCN5CCOCC5)cc4)c3)cc21", "cat": "true"}

Request: Please check: % viability for O=C(O)/C=C\c1c[nH]cn1 [ONC0002668, cisurocanic acid] , strictly under 90% or not?
Result: true

Request: Please check: % viability for CCOc1cccc(NC(=O)c2ccc(N3CCCC3)c(C(F)(F)F)c2)c1 , strictly under 90% or not?
Result: true

Request: Please check: % viability for O=C(Nc1cc(C(F)(F)F)cc(C(F)(F)F)c1)c1cnc(Cl)nc1C(F)(F)F , strictly under 90% or not?
Result: false

Request: Please check: % viability for COc1cc(-n2c(S)nc3ccccc3c2=O)c(Cl)cc1Cl , strictly under 90% or not?
Result: false

Request: Please check: % viability for CC(=O)OCC(=O)[C@@]12OC(C)(C)O[C@@H]1CC1C3C[C@H](F)C4=CC(=O)C=C[C@]4(C)[C@@]3(F)[C@@H](O)C[C@@]12C (some centres unmarked) [ONC0000518, fluocinonide] , strictly under 90% or not?
Result: true

Request: Please check: % viability for O=C1c2ccccc2-n2c1nc1ccccc1c2=O , strictly under 90% or not?
Result: true

Request: Please check: % viability for COc1ccc(NS(=O)(=O)c2sc3ccc(Cl)cc3c2C)cc1N1CCNCC1 , strictly under 90% or not?
Result: false

Request: Please check: % viability for CC(=O)Nc1c(I)c(C(=O)O)c(I)c(N(C)C(C)=O)c1I , strictly under 90% or not?
Result: false

Request: Please check: % viability for COc1ccc(NS(=O)(=O)c2ccc(I)cc2)cc1N1CCN(C)CC1 , strictly under 90% or not?
Result: true

Request: Please check: % viability for OC[C@H]1O[C@H](O[C@H]2[C@H](O)[C@@H](O)[C@H](O)O[C@@H]2CO)[C@H](O)[C@@H](O)[C@@H]1O , strictly under 90% or not?
Result: true

Request: Please check: % viability for COc1ccc(S(=O)(=O)Nc2cc(Cl)cc(Cl)c2OC)cc1N1CCNCC1 , strictly under 90% or not?
Result: true

###

system: M. mycetomatis strain mm55; conditions: primary screen, metabolic activity vs growth control; 96 h, 2 µM; inhibitor
Counter-ions that a name gives are not always drawn. The whole screen tested about 5,300 compounds, of which about 130 (2.5%) showed an effect of 50% or more. This is one part of a sample in which strong results are shown more often than they occur.
Below: a set of entries, each annotated with reported % viability.
Please reply with the bare figure in % and do not write the unit itself.

{"compound": "CC1(C)OC2(C)C(O)CC1CC2O (stereo not shown) [ONC0003817, epomediol]", "experimental-system": "M. mycetomatis strain mm55", "output-unit": "%", "% viability": 42.26}
{"compound": "CC/C(=C(\\c1ccc(O)cc1)c1ccc(OCCN(C)C)cc1)c1ccccc1 [ONC0002197, afimoxifene]", "experimental-system": "M. mycetomatis strain mm55", "output-unit": "%", "% viability": 79.17}
{"compound": "CC[C@H](C)[C@H](NC(=O)[C@H](Cc1ccc(O)cc1)NC(=O)[C@@H](NC(=O)[C@H](CCCNC(=N)N)NC(=O)[C@@H](N)CC(=O)O)C(C)C)C(=O)N[C@@H](Cc1cnc[nH]1)C(=O)N1CCC[C@H]1C(=O)N[C@@H](Cc1ccccc1)C(=O)O [ONC0002134, angiotensin ii human]", "experimental-system": "M. mycetomatis strain mm55", "output-unit": "%", "% viability": 79.83}
{"compound": "CC1(C)[C@@H](O)CC[C@]2(C)[C@H]3C(=O)C=C4[C@@H]5C[C@@](C)(C(=O)O)CC[C@]5(C)CC[C@@]4(C)[C@]3(C)CC[C@@H]12 [ONC0003205, enoxolone]", "experimental-system": "M. mycetomatis strain mm55", "output-unit": "%", "% viability": 101.1}
{"compound": "CC/C(=C(\\c1ccc(O)cc1)c1ccc(OCCNC)cc1)c1ccccc1 [ONC0004522, endoxifen hcl]", "experimental-system": "M. mycetomatis strain mm55", "output-unit": "%", "% viability": 48.7}

Request: Given CC/C(=C(\c1ccccc1)c1ccc(OCCN(C)C)cc1)c1ccccc1 [ONC0000595, tamoxifen citrate] , respond with its % viability.
Result: 106.5

Request: Given CC1(C)[C@@H]2C[C@@H](O)[C@@](C)(O)[C@H]1C2 [ONC0002949, 266trimethylbicyclo311heptane23diol] , respond with its % viability.
Result: 64.26

Request: Given NC(C(=O)O)c1ccc(C(=O)O)c(O)c1 (stereo not shown) [ONC0002596, 4carboxy3hydroxyphenylglyciners] , respond with its % viability.
Result: 58.45

Request: Given CC(=O)O[C@@H]1CC[C@@]2(C)[C@@H](CC[C@]3(C)[C@@H]2C(=O)C=C2[C@@H]4[C@@H](C)[C@H](C)CC[C@]4(C)CC[C@]23C)[C@@]1(C)C(=O)O [ONC0002083, akba] , respond with its % viability.
Result: 67.6

Request: Given CCN1CCC(n2cc(CNc3cc(Cl)c4ncc(C#N)c(Nc5ccc(F)c(Cl)c5)c4c3)nn2)CC1 [ONC0002075, cot inhibitor2] , respond with its % viability.
Result: 82.04

Request: Given CNCC(O)c1ccc(O)cc1 (stereo not shown) [ONC0005413, oxedrine] , respond with its % viability.
Result: 69.09

Request: Given Cc1ccc(-c2ncccn2)c(C(=O)N2C[C@H](COc3ccc(F)cn3)CC[C@H]2C)c1 [ONC0005570, filorexant] , respond with its % viability.
Result: 73.84

Request: Given N#Cc1cnc2cnc(NCc3cccnc3)cc2c1Nc1ccc(F)c(Cl)c1 [ONC0001337, tcs7006] , respond with its % viability.
Result: 78.74

###

Below: a set of entries, each annotated with reported % viability.
system: M. mycetomatis strain mm55; conditions: primary screen, metabolic activity vs growth control; 96 h, 2 µM; inhibitor
Counter-ions that a name gives are not always drawn. In all, about 5,300 compounds went through this assay and about 130 (2.5%) showed an effect of 50% or more. What follows is part of a selection rich in strong results, with near analogues and random picks from the rest.
Please reply with the bare figure in % and do not write the unit itself.

// solved cases for % viability follow
{"compound": "C[N+]1(C)C2CCC1CC(OC(=O)C(CO)c1ccccc1)C2 (centres unmarked) [ONC0003986, methylatropine nitrate]", "test-value": 73.02}
{"compound": "CN1CCN(CCCN2c3ccccc3Sc3ccc(C(F)(F)F)cc32)CC1 [ONC0003239, trifluoperazine hydrochloride]", "test-value": 119.8}
{"compound": "OCC(O)COc1ccc(Cl)cc1 (centres unmarked)", "test-value": 67.41}
{"compound": "OCCN1CCN(CCCN2c3ccccc3Sc3ccc(C(F)(F)F)cc32)CC1 [ONC0003193, fluphenazine hydrochloride]", "test-value": 105.7}

Request: Given C[N+]1(C)CCC(OC(=O)C(c2ccccc2)c2ccccc2)CC1 , respond with its % viability.
Result: 92.53

Request: Given On1ncc(C2CCNCC2)c1-c1cccc(-c2ccccc2)c1 [ONC0002501, php501 trifluoroacetate] , respond with its % viability.
Result: 45.31

Request: Given Cc1cc(NC(=O)C2C(=O)c3ccccc3S(=O)(=O)N2C)no1 (centres unmarked) , respond with its % viability.
Result: 123.7

Request: Given N=C(N)c1ccc(/C=C/c2ccc(C(=N)N)cc2O)cc1 [ONC0003463, hydroxystilbamidine] , respond with its % viability.
Result: 43.6

###

system: M. mycetomatis strain mm55; settings: primary screen, metabolic activity vs growth control; 96 h, 2 µM; inhibitor
Screen size: about 5,300 compounds; about 130 (2.5%) showed an effect of 50% or more. The list comes from a sample in which strong results are over-represented; it also holds close analogues and randomly drawn compounds.
Below: a set of entries, each annotated with reported % viability.
Please reply with the bare figure in % and do not write the unit itself.

Request: Given NC(=O)C[C@H](N)C(=O)O , respond with its % viability.
Result: 76.47
